PROTOCOL DESCRIPTION: NCI Yeast Anticancer Drug Screen. Data for the sgs1 mgt1 strain (AID 161);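 also: 0% = growth of cultures given vehicle only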
CONDITION CONTEXT: S. cerevisiae sgs1 mgt1 strain, at 50.0 µM (retest, dose inferred, filed as 5.0)
The panel holds about 79,000 compounds, 15% with a hit somewhere; the sample as a whole holds those more often. Calls of active or inactive are those of the source. Rule as the data show it: active = growth inhibition above about 70%; inactive = the rest.
Outcomes: active, inactive

MOLECULE | CATEGORY LABEL
CCS/C(SC)=C(/c1ccccc1)[P+](c1ccccc1)(c1ccccc1)c1ccccc1 | active
O=P(OCCCl)(OCCCl)C(Nc1cccc2ccccc12)c1ccccc1 (stereo not given) | active
O=C1OC(c2cccc(Cl)c2)Sc2ccccc21 (stereo not given) | inactive
O=C1/C(=C/c2ccc([N+](=O)[O-])cc2)Sc2scc(-c3cccc([N+](=O)[O-])c3)[n+]21 | active
O=[N+]([O-])/C(Cl)=C(\Sc1ccccc1)C(Cl)=C(Cl)Cl | active
NC(=O)C(CCc1cccc2ccccc12)c1ccccc1 (stereo not given) | inactive
Fc1ccccc1CN1COc2c(cc(Cl)c3cccnc23)C1 | active
[Cl][Sn]([O][Sn]([Cl])([c]1ccccc1)[CH]1CCCCC1)([c]1ccccc1)[CH]1CCCCC1 (stereo not given) | active
CC(C(=O)O)C(N)C(=O)O (stereo not given) | inactive
NNc1ncc2c(n1)-c1ccccc1OC2 | inactive
CCCCCCSc1nc2ccc(N=Cc3ccccc3O)cc2s1 | active
O=C1c2ccccc2C(=O)c2ncccc21 | active
O=C1O/C(=C2\OC(=O)c3ccccc32)c2ccccc21 | inactive
CCC[n+]1ccnc2ccccc21 | inactive
O=C(Nn1c(=O)c(=O)oc2ccccc21)C(F)(F)F | active
O=c1ccc([N+](=O)[O-])c[nH]1.[Ag] | active
CC1NS(=O)(=O)N(C)C1=O (stereo not given) | inactive
C=C(Br)CN(CC(=C)Br)C(C)=O | inactive
CN(C)c1ccc(-c2c(C#N)c(-c3ccccc3)n(NS(=O)(=O)c3ccccc3)c(=O)c2C#N)cc1 | inactive
C#CCN1CCN(C(=S)N/N=C(\C)c2ccccn2)CC1 | active
COc1ccc2c(c1)nc1cc(Cl)ccc1[n+]2C | active
COc1ccccc1NC(=O)O/N=C(/Cl)C(C)C | active
CCCCCCCCCCCCCC(=O)CBr | active
NS(=O)(=O)c1ccc(Nc2c3ccccc3nc3c(C(=O)NC(CO)(CO)CO)cccc23)cc1 | inactive
COC1CCC(/C(C#N)=C/c2ccco2)CC1 (stereo not given) | inactive

====

PROTOCOL DESCRIPTION: NCI Yeast Anticancer Drug Screen. Data for the bub3 strain (AID 167)
CONDITION CONTEXT: S. cerevisiae bub3 mutant strain, at 50.0 µM
Compounds without any hit were thinned out: in the full panel of roughly 79,000, 15% have a hit. Calls of active or inactive are those of the source. Cut-off read from the data, not from the text of the source: active = growth inhibition above about 70%; inactive = the rest.
Labels: Yes (active), No (inactive)

COMPOUND | CATEGORY LABEL
CCOC(=O)Nc1nc2ccc(Cn3cccc3)cc2[nH]1 | No
CC/C(=C\c1cccc(OC)c1)c1ccncc1 | Yes
Nc1ccc2ccc3cccc4ccc1c2c34 | No
CSc1cc2c(cc1N)Cc1cc(F)ccc1-2 | Yes
CCc1ccc(N(C(C)=O)C2=C(Cl)C(=O)c3ccccc3C2=O)cc1 | No
N#CC(C(=O)C(=O)NC1C2CC3CC(C2)CC1C3)c1c(Cl)cccc1Cl (stereo not given) | No
COC1=CC(=O)C(O)=C/C1=C\C=C\c1ccccc1 | Yes
CC1(C)CC(=O)C(CSC(=O)c2ccccc2)=C(O)C1 | No
O=C(C[n+]1cccc2ccccc21)c1ccc(-c2ccc(C(=O)C[n+]3cccc4ccccc43)cc2)cc1 | No
O=C(O)C1OC(Oc2ccc3oc4ccccc4c(=O)c3c2)C(O)C(O)C1O (stereo not given) | No
O=C(CCl)Nc1cc(Cl)ccc1Cl | Yes
COc1ccc(CC2c3cc4c(cc3CCN2C)OCO4)c(C=O)c1OC (stereo not given) | No
C1C[OH+]CC[OH+]CCNCC[OH+]CC[OH+]CCN1.[Cl-].[Pt+4] | Yes
NC(=S)N1N=C2c3ccccc3CCC[C@H]2[C@@H]1c1ccccc1 | Yes
O=C(c1ccccc1)c1ccc(Cl)cc1 | Yes
N#CC1(C#N)C2C=CC(C3CCC=C32)C1(C#N)C#N (stereo not given) | Yes
O=C1NCCCNCCCNCCCNC(=O)c2cccc1n2 | No
COc1cc(O)c2c(=O)c3cccc(C)c3[nH]c2c1 | No
CCCCOS(=O)(=O)c1ccc(C)cc1 | No
O=C1C2C3C=CC(C2C(=O)N1CN1CCOCC1)C1C2C(=O)N(CN4CCOCC4)C(=O)C2C31 (stereo not given) | No
CCc1ccccc1SC(C)=O | Yes
Oc1cc(CNCc2ccccc2)c(O)c(CNCc2ccccc2)c1 | No
CN(C)CC(CN(C)C)C(=O)C1CCCCC1 | No
COC1=CC(=O)C(C#CCOCc2ccccc2)=CC1=O | Yes
O=C(O)c1cc2ccc(Cl)cc2c2c1C(=O)c1cc(Cl)ccc1-2 | Yes

====

PROTOCOL DESCRIPTION: NCI Yeast Anticancer Drug Screen. Data for the cln2 rad14 strain (AID 165);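 also: 0% = growth equal to vehicle treated cultures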
CONDITION CONTEXT: S. cerevisiae cln2 rad14 strain, at 5.0 µM (retest, dose inferred, filed as 0.5), stronger effect = higher value
About 79,000 compounds went through this panel and 15% of them were active in at least one assay; those are over-represented in the sample as a whole.
Measured growth inhibition, listed per entry.

CHEMICAL STRING | growth inhibition, %
O=C1C=CC(=O)c2c(O)c(N3CCC[C@@H]3CO)c(Cl)c(O)c21 | 19
O=C(O)CSc1cc2c3ccccc3sc2c2ccccc12 | 4
C=CC1(c2ccc(-c3ccccc3)cc2)OCCO1 | 19
CCN(CC)CCOC(=O)c1ccc(N=Nc2ccc(O)c3ccccc23)cc1 | 6
O=C(c1ccccc1)N(c1ccccc1)c1ccc2ccccc2c1 | -35
CN(C)CC[N+](C)(C)Cc1ccc(C[N+](C)(C)CC[N+](C)(C)Cc2ccc(CCl)cc2)cc1 | 1
C=C1C(=O)O[C@@H]2C[C@]3(C)CC[C@]4(C)[C@H](CC[C@@H]5[C@@]6(C)CCC(=O)C(C)(C)[C@@H]6CC[C@]54C)[C@H]3[C@H]12 | -3
COC(=O)c1ccc(NCC2=C(Br)C(=O)C=CC2=O)cc1Cl | 43
CCOc1ccccc1NC(=O)/C(Cl)=C(\Cl)C(=O)O | 100
COc1cc(NCc2ccc3nc(-c4ccccc4)c(N)nc3c2)cc(OC)c1OC | 5

====

PROTOCOL DESCRIPTION: NCI Yeast Anticancer Drug Screen. Data for the mec2-1 strain (AID 157)
CONDITION CONTEXT: S. cerevisiae mec2-1 strain, at 50.0 µM, stronger effect = higher value
The panel holds about 79,000 compounds, 15% with a hit somewhere; the sample as a whole holds those more often.
# maps each entry to its growth inhibition
MEASURED PARAMETER: growth inhibition (%)

COMPOUND | MEASURED PARAMETER | SCALE UNIT | ENDPOINT RESULT
C(=N\NC1=NCCN1)/c1ccc(-c2cn3cc(/C=N/NC4=NCCN4)ccc3n2)cc1 | growth inhibition | % | 97.8
COc1ccccc1C1C(Cl)C(=O)N1n1cnc2ccccc2c1=O (stereo not given) | growth inhibition | % | 49.4
CC1([N+](=O)[O-])C(=O)C2(N3CCCCC3)CCCC2C1c1ccccc1 (stereo not given) | growth inhibition | % | 8.6
Cc1c(CCCl)c(N=[N+]=[N-])n2c(nc3ccccc32)c1C#N | growth inhibition | % | 71.2
CC(=O)OCc1ccc([N+](=O)[O-])o1 | growth inhibition | % | 98.3
C[C@]12C[C@@H](c3ccccc3)Nc3ccccc3N1C(c1ccccc1)=NO2 | growth inhibition | % | 74.8
CC12CCC(C(Br)(Br)C1=O)C2(C)C (stereo not given) | growth inhibition | % | 59.4
COc1ccc(-c2cc(-c3ccc(OC)cc3OC)[n+](C)c(-c3ccc(OC)cc3OC)c2)cc1 | growth inhibition | % | 93
CCOC(=O)CN1CCC(C(=O)CC2(O)C3(Cl)C4(Cl)C5(Cl)C(Cl)(Cl)C6(Cl)C4(Cl)C2(Cl)C6(Cl)C53Cl)CC1 (stereo not given) | growth inhibition | % | 99.2
CCN(CC)CCCNc1c2c(Cl)cc(Cl)cc2nc2nc(=O)[nH]c(C)c12 | growth inhibition | % | 0.9
CC(C)C1(C)C(C#N)(C#N)C1(C#N)C#N | growth inhibition | % | 91.5
CCCCCCCCCCCCCCCCSC(=NC)NC | growth inhibition | % | 99.2
CN=S(=O)(OCCCCCCCCCOS(=O)(=NC)c1ccc(C)cc1)c1ccc(C)cc1 (stereo not given) | growth inhibition | % | 70
CCOc1ccc2c(c1)n([O-])c1ccccc1[n+]2=O | growth inhibition | % | 97.4
CCCCCC(CCCCC)OC(=O)CCN(CCCCC)CCCCC | growth inhibition | % | 46.1
Cc1cc2ccc(N)nc2[nH]c1=O | growth inhibition | % | 27.2
CCCCCCCCCCCCCCCC[N+](C)(C)C(C)c1ccc(OC)cc1 (stereo not given) | growth inhibition | % | 90.2
CC1CCCCC12C(C#N)(C#N)C2(C#N)C#N (stereo not given) | growth inhibition | % | 99.3
Clc1ccc(N2CCN(CCCN3CCN(c4ccc(Cl)cc4)CC3)CC2)cc1 | growth inhibition | % | 18.5
O=C1c2ccc3ccccc3c2CCC1[n+]1ccc2ccccc2c1 (stereo not given) | growth inhibition | % | 77.3
CCOCCOc1ccc(OCCOCC)cc1 | growth inhibition | % | -1.7
O=Cc1c(O)ccc2ccccc12 | growth inhibition | % | 99.4
CN(C)N=Nc1c(-c2cccs2)n[nH]c1C(F)(F)F | growth inhibition | % | 99.8
CC(C)(C)C1=CC(N2CCCCC2)(C(C)(C)C)C=C(C(C)(C)C)C1=O | growth inhibition | % | 91.8
OC(C1CCC=NN1C(O)(C(F)(F)F)C(F)(F)F)(C(F)(F)F)C(F)(F)F (stereo not given) | growth inhibition | % | 83.1
CC(C)Cc1ccc(C(C)/C=C2\CCC(CN3CCCCC3)C2=O)cc1 (stereo not given) | growth inhibition | % | 94.2
COc1cccc2nc3c(C(=O)NCCN(C)C)cccc3cc12 | growth inhibition | % | 15.9
CCC1=C(c2ccccc2)C(O)(c2ccccc2)C(CC)C1=O (stereo not given) | growth inhibition | % | 92.5
CCC[CH2][Sn]([CH2]CCC)([O]C(=O)c1cc(F)ccc1F)[O][Sn]([CH2]CCC)([CH2]CCC)[O]C(=O)c1cc(F)ccc1F | growth inhibition | % | 69.3
CC1=CC(C)C(C)N(CCNC(=O)Nc2ccccc2)c2ccccc21 (stereo not given) | growth inhibition | % | 80.9
Cc1ccccc1C1SCc2nc3ccccc3n21 (stereo not given) | growth inhibition | % | 8.3
O=[N+]([O-])c1ccc2c(c1)N([O-])C1(CCCCC1)[N+]2=O | growth inhibition | % | 92.9
CCOc1cc2c(cc1Cc1c(OC)cc(OC)cc1OC)OCO2 | growth inhibition | % | 16.5
Fc1ccc2c(c1)Nc1cc(F)cc(F)c1S2 | growth inhibition | % | -2
OCc1c(-c2cccc3ccccc23)sc(-c2cccc3ccccc23)c1CO | growth inhibition | % | 92.8
CCCC(=O)Oc1ccc(-c2ccc(Br)cc2)cc1 | growth inhibition | % | 93.6
CNC(=S)N/N=C(\C=N\NC(=S)NC)c1ccccc1 | growth inhibition | % | 37
O=C1Oc2cc3c(c4cccc1c24)OCN(c1ccccc1)C3 | growth inhibition | % | 49.9
N#CCCN(C(=S)Nc1ccc(Cl)c(Cl)c1)C1CCCCC1 | growth inhibition | % | 79.7
OC(C/C(=N\N=C(/CC(O)(C(F)(F)F)C(F)(F)F)c1ccccc1)c1ccccc1)(C(F)(F)F)C(F)(F)F | growth inhibition | % | 51
CC(C)(C)OC(=O)N(CCCCNCc1ccc2ccccc2c1)CCCNCc1ccc2ccccc2c1 | growth inhibition | % | 92.6
CN1c2ccccc2S(=O)(=O)n2c(CCc3ccccc3)nnc21 | growth inhibition | % | -3
CC(=O)N1c2ccccc2Sc2ccc3ccc(C(=O)CCl)cc3c21 | growth inhibition | % | 90.5
c1ccc(CCCCc2ccncc2)cc1 | growth inhibition | % | 46.2
CCCC(=O)C1=C(O)C(Cc2c(O)c(C)c(O)c(C(=O)CCC)c2O)=C(O)C(C)(C)C1=O | growth inhibition | % | 92.9
